- assay-info: in vivo
- run-conditions: rat, sc, 3 mg/kg
endpoint-name: concentration at 24 h (ng/mL)

[2H]c1c([2H])c(OC([2H])([2H])C([2H])([2H])C([2H])([2H])N2CC[C@H]3[C@@H](C2)c2cccc4c2N3C([2H])([2H])C(=O)N4)c([2H])c([2H])c1F : 2.1
[2H]C([2H])(Oc1ccc(F)cc1)C([2H])([2H])C([2H])([2H])N1CC[C@H]2[C@@H](C1)c1cccc3c1N2CC(=O)N3 : 2.1

###

- assay-info: in vivo
- run-conditions: rat, po, 10 mg/kg
endpoint-name: concentration at 6 h (ng/mL)

[2H]C([2H])(Oc1ccc(F)cc1)C([2H])([2H])C([2H])([2H])N1CC[C@H]2[C@@H](C1)c1cccc3c1N2CC(=O)N3 : 260
[2H]c1c([2H])c(OC([2H])([2H])C([2H])([2H])C([2H])([2H])N2CC[C@H]3[C@@H](C2)c2cccc4c2N3C([2H])([2H])C(=O)N4)c([2H])c([2H])c1F : 245

###

- assay-info: in vivo
- run-conditions: rat, sc, 3 mg/kg
endpoint-name: concentration at 0.5 h (ng/mL)

[2H]C([2H])(Oc1ccc(F)cc1)C([2H])([2H])C([2H])([2H])N1CC[C@H]2[C@@H](C1)c1cccc3c1N2CC(=O)N3 : 80
[2H]c1c([2H])c(OC([2H])([2H])C([2H])([2H])C([2H])([2H])N2CC[C@H]3[C@@H](C2)c2cccc4c2N3C([2H])([2H])C(=O)N4)c([2H])c([2H])c1F : 76.4
